- Tested on: Staphylococcus aureus
- test_protocol: Antibacterial activity against antibiotic susceptible Staphylococcus aureus ATCC 25923 assessed as inhibition of bacterial growth by CLSI protocol based broth microdilution method
- Assay type: functional
Reported MIC values follow for various molecules

smiles_str	MIC / µg/mL
O=C(O)c1ccc(-c2nn(-c3ccc(C(F)(F)F)cc3)cc2CNc2ccc(Br)cc2)cc1	6.25
O=C(O)c1ccc(-c2nn(-c3ccc(C(F)(F)F)cc3)cc2CNc2cccc(Br)c2)cc1	3.12
CN1CCN(c2ccc(NCc3cn(-c4ccc(C(F)(F)F)cc4)nc3-c3ccc(C(=O)O)cc3)cc2C(F)(F)F)CC1	25
Cc1cc(NCc2cn(-c3ccc(C(F)(F)F)cc3)nc2-c2ccc(C(=O)O)cc2)ccc1F	12.5

----------
- test_protocol: Cytotoxicity against human HEK293 cells reduction in cell viability incubated for 24 hrs by resazurin cell viability assay
- Type: toxicity, cell-based

smiles_str	IC50 at 24 h
Cc1cc(NCc2cn(-c3ccc(C(F)(F)F)cc3)nc2-c2ccc(C(=O)O)cc2)ccc1Br	> 12 µg/mL
O=C(O)c1ccc(-c2nn(-c3ccc(C(F)(F)F)cc3)cc2CNc2ccc(Cl)c(Cl)c2)cc1	> 12 µg/mL
O=C(O)c1ccc(-c2nn(-c3ccc(C(F)(F)F)cc3)cc2CNc2ccc(Br)c(C(F)(F)F)c2)cc1	> 12 µg/mL
O=C(O)c1ccc(-c2nn(-c3ccc(C(F)(F)F)cc3)cc2CNc2ccc(Oc3ccccc3)cc2)cc1	23.5 µg/mL
Cc1ccc(NCc2cn(-c3ccc(C(F)(F)F)cc3)nc2-c2ccc(C(=O)O)cc2)cc1Cl	> 12 µg/mL
CC(C)(C)c1ccc(NCc2cn(-c3ccc(C(F)(F)F)cc3)nc2-c2ccc(C(=O)O)cc2)cc1	8 µg/mL

----------
MBEC by entry:
- System: Enterococcus faecalis
- test_protocol: Anti-biofilm activity against Enterococcus faecalis ATCC 29212 assessed as eradication of biofilm formation incubated for 24 hrs by Calgary biofilm device assay
- Format: functional

smiles_str	value_qualifier	MBEC, µg/mL
CN[C@H](CC(C)C)C(=O)N[C@H]1C(=O)N[C@@H](CC(N)=O)C(=O)N[C@H]2C(=O)N[C@H]3C(=O)N[C@H](C(=O)N[C@H](C(=O)O)c4cc(O)cc(O)c4-c4cc3ccc4O)[C@H](O)c3ccc(c(Cl)c3)Oc3cc2cc(c3O[C@@H]2O[C@H](CO)[C@@H](O)[C@H](O)[C@H]2O[C@H]2C[C@](C)(N)[C@H](O)[C@H](C)O2)Oc2ccc(cc2Cl)[C@H]1O	>	50
O=C(O)c1ccc(-c2nn(-c3ccc(C(F)(F)F)cc3)cc2CNc2ccc(Oc3ccccc3)cc2)cc1	=	12.5
Cc1cc(NCc2cn(-c3ccc(C(F)(F)F)cc3)nc2-c2ccc(C(=O)O)cc2)ccc1Br	=	25
O=C(O)c1ccc(-c2nn(-c3ccc(C(F)(F)F)cc3)cc2CNc2ccc(Br)c(C(F)(F)F)c2)cc1	=	6.25

----------
- System: Enterococcus faecium
- test_protocol: Antibacterial activity against Enterococcus faecium clinical isolate 1091282 assessed as inhibition of bacterial growth by CLSI protocol based broth microdilution method
- Assay type: functional
MIC for assorted compounds
test_readout: MIC

compound	assay_value
Cc1onc(-c2ccccc2)c1C(=O)N[C@@H]1C(=O)N2[C@@H]1SC(C)(C)[C@@H]2C(=O)O [OXACILLIN]	> 64 µg/mL
CN[C@H](CC(C)C)C(=O)N[C@H]1C(=O)N[C@@H](CC(N)=O)C(=O)N[C@H]2C(=O)N[C@H]3C(=O)N[C@H](C(=O)N[C@H](C(=O)O)c4cc(O)cc(O)c4-c4cc3ccc4O)[C@H](O)c3ccc(c(Cl)c3)Oc3cc2cc(c3O[C@@H]2O[C@H](CO)[C@@H](O)[C@H](O)[C@H]2O[C@H]2C[C@](C)(N)[C@H](O)[C@H](C)O2)Oc2ccc(cc2Cl)[C@H]1O [VANCOMYCIN]	> 32 µg/mL
C[C@@H](O)[C@H]1C(=O)N2C(C(=O)O)=C(S[C@@H]3CN[C@H](C(=O)N(C)C)C3)[C@H](C)[C@H]12 [MEROPENEM]	> 128 µg/mL
O=C(O)c1ccc(-c2nn(-c3ccc(C(F)(F)F)cc3)cc2CNc2ccc(Br)c(C(F)(F)F)c2)cc1	8 µg/mL

----------
- Tested on: Staphylococcus aureus
- test_protocol: Antibacterial activity against antibiotic susceptible Staphylococcus aureus ATCC 25923 assessed as inhibition of bacterial growth by CLSI protocol based broth microdilution method
- Type: functional
test_readout: MIC (µg/mL)

smiles_str	test_readout	assay_value
O=C(O)c1ccc(-c2nn(-c3ccc(C(F)(F)F)cc3)cc2CNc2ccc(F)cc2)cc1	MIC	25
O=C(O)c1ccc(-c2nn(-c3ccc(C(F)(F)F)cc3)cc2CNc2ccc(Cl)c(Cl)c2)cc1	MIC	1.56
CC(C)(C)c1ccc(NCc2cn(-c3ccc(C(F)(F)F)cc3)nc2-c2ccc(C(=O)O)cc2)cc1	MIC	1.56
CC(C)c1ccc(NCc2cn(-c3ccc(C(F)(F)F)cc3)nc2-c2ccc(C(=O)O)cc2)cc1	MIC	3.12
O=C(O)c1ccc(-c2nn(-c3ccc(C(F)(F)F)cc3)cc2CNc2ccc(C(F)(F)F)cc2)cc1	MIC	12.5
O=C(O)c1ccc(-c2nn(-c3ccc(C(F)(F)F)cc3)cc2CNc2ccc(F)c([N+](=O)[O-])c2)cc1	MIC	12.5

----------
- Tested on: Staphylococcus aureus
- test_protocol: Antibacterial activity against antibiotic resistant Staphylococcus aureus BAA-2312 assessed as inhibition of bacterial growth by CLSI protocol based broth microdilution method
- Format: functional
The compounds listed here are annotated with their MIC.

compound	MIC, µg/mL
O=C(O)c1ccc(-c2nn(-c3ccc(C(F)(F)F)cc3)cc2CNc2cccc(Br)c2)cc1	6.25
O=C(O)c1ccc(-c2nn(-c3ccc(C(F)(F)F)cc3)cc2CNc2ccc(F)c(F)c2)cc1	25
O=C(O)c1ccc(-c2nn(-c3ccc(C(F)(F)F)cc3)cc2CNc2ccccc2)cc1	25
O=C(O)c1ccc(-c2nn(-c3ccc(C(F)(F)F)cc3)cc2CNc2ccc(F)c(Cl)c2)cc1	6.25
CC(C)(C)c1ccc(NCc2cn(-c3ccc(C(F)(F)F)cc3)nc2-c2ccc(C(=O)O)cc2)cc1	3.12
O=C(O)c1ccc(-c2nn(-c3ccc(C(F)(F)F)cc3)cc2CNc2ccc(Oc3ccccc3)cc2)cc1	3.12
O=C(O)c1ccc(-c2nn(-c3ccc(C(F)(F)F)cc3)cc2CNc2ccc(Br)cc2)cc1	6.25
O=C(O)c1ccc(-c2nn(-c3ccc(C(F)(F)F)cc3)cc2CNc2ccc(Cl)c(Cl)c2)cc1	1.56
O=C(O)c1ccc(-c2nn(-c3ccc(C(F)(F)F)cc3)cc2CNc2ccc(Cl)cc2)cc1	12.5
Cc1cc(NCc2cn(-c3ccc(C(F)(F)F)cc3)nc2-c2ccc(C(=O)O)cc2)ccc1Br	3.12
Cc1cc(NCc2cn(-c3ccc(C(F)(F)F)cc3)nc2-c2ccc(C(=O)O)cc2)ccc1F	25
CSc1ccc(NCc2cn(-c3ccc(C(F)(F)F)cc3)nc2-c2ccc(C(=O)O)cc2)cc1	25
CN[C@H](CC(C)C)C(=O)N[C@H]1C(=O)N[C@@H](CC(N)=O)C(=O)N[C@H]2C(=O)N[C@H]3C(=O)N[C@H](C(=O)N[C@H](C(=O)O)c4cc(O)cc(O)c4-c4cc3ccc4O)[C@H](O)c3ccc(c(Cl)c3)Oc3cc2cc(c3O[C@@H]2O[C@H](CO)[C@@H](O)[C@H](O)[C@H]2O[C@H]2C[C@](C)(N)[C@H](O)[C@H](C)O2)Oc2ccc(cc2Cl)[C@H]1O [VANCOMYCIN]	0.78
CC(C)c1ccc(NCc2cn(-c3ccc(C(F)(F)F)cc3)nc2-c2ccc(C(=O)O)cc2)cc1	6.25
CN1CCN(c2ccc(NCc3cn(-c4ccc(C(F)(F)F)cc4)nc3-c3ccc(C(=O)O)cc3)cc2C(F)(F)F)CC1	25

----------
Quick list: MIC per entry.
- Tested on: Staphylococcus aureus
- test_protocol: Antibacterial activity against antibiotic resistant Staphylococcus aureus ATCC 700699 assessed as inhibition of bacterial growth by CLSI protocol based broth microdilution method
- Format: functional

smiles_str	MIC (µg/mL)
O=C(O)c1ccc(-c2nn(-c3ccc(C(F)(F)F)cc3)cc2CNc2ccc(C(F)(F)F)cc2)cc1	3.12
O=C(O)c1ccc(-c2nn(-c3ccc(C(F)(F)F)cc3)cc2CNc2ccc(F)c(F)c2)cc1	6.25
CSc1ccc(NCc2cn(-c3ccc(C(F)(F)F)cc3)nc2-c2ccc(C(=O)O)cc2)cc1	12.5
O=C(O)c1ccc(-c2nn(-c3ccc(C(F)(F)F)cc3)cc2CNc2ccc(Br)c(C(F)(F)F)c2)cc1	0.78
O=C(O)c1ccc(-c2nn(-c3ccc(C(F)(F)F)cc3)cc2CNc2ccc(Oc3ccccc3)cc2)cc1	1.56
O=C(O)c1ccc(-c2nn(-c3ccc(C(F)(F)F)cc3)cc2CNc2ccc(Br)cc2)cc1	3.12
CN[C@H](CC(C)C)C(=O)N[C@H]1C(=O)N[C@@H](CC(N)=O)C(=O)N[C@H]2C(=O)N[C@H]3C(=O)N[C@H](C(=O)N[C@H](C(=O)O)c4cc(O)cc(O)c4-c4cc3ccc4O)[C@H](O)c3ccc(c(Cl)c3)Oc3cc2cc(c3O[C@@H]2O[C@H](CO)[C@@H](O)[C@H](O)[C@H]2O[C@H]2C[C@](C)(N)[C@H](O)[C@H](C)O2)Oc2ccc(cc2Cl)[C@H]1O	3.12
